Molecular target: hNaV1.7 (Homo sapiens)
Construct: expressed in transfected cells
Assay: Patch voltage clamp electrophysiology (EP), Syncropatch 384PE, Nav1.7 in CHO cells
Format: cell-based
Conditions: holding potential −50 mV, inhibition based on 7.5 min compound incubation, read-out: hNaV1.7 EP_SP
Catalogue of log10 of IC50 readings, one per entry.
Give log10 of IC50, with IC50 taken in nM.

O=C(NS(=O)(=O)c1ccc(C(F)(F)F)cc1)c1cc(Cl)c(OCC2CCCC2)cc1F :: 2.79
CO[C@H]1CC[C@@H](S(=O)(=O)NC(=O)c2cc(Cl)c(OCC3CCCC3)cc2F)CC1 :: 2.59
O=C(NS(=O)(=O)c1c(F)cccc1F)c1cc(Cl)c(OCC2CCCC2)cc1F :: 2.00
C[C@H]1CCCN1S(=O)(=O)NC(=O)c1cc(Cl)c(OCC2CCCC2)cc1F (single isomer, unassigned) :: 1.59
O=C(NS(=O)(=O)c1ccc2c(c1)CCCO2)c1cc(Cl)c(OCC2CCCC2)cc1F :: 2.52

Now for another entry.
[Q] Name the recorded log10 of IC50 of the item O=C(NS(=O)(=O)c1ccc(OCc2ccccn2)cc1)c1cc(Cl)c(OCC2CCCC2)cc1F in your answer.
[A] 1.59

###

Reported values of IC50 for individual entries
Target: hNaV1.7 (Homo sapiens, UniProt Q15858)
Construct: expressed in transfected cells
Sequence (Q15858 1-1977 isoform Q15858-3): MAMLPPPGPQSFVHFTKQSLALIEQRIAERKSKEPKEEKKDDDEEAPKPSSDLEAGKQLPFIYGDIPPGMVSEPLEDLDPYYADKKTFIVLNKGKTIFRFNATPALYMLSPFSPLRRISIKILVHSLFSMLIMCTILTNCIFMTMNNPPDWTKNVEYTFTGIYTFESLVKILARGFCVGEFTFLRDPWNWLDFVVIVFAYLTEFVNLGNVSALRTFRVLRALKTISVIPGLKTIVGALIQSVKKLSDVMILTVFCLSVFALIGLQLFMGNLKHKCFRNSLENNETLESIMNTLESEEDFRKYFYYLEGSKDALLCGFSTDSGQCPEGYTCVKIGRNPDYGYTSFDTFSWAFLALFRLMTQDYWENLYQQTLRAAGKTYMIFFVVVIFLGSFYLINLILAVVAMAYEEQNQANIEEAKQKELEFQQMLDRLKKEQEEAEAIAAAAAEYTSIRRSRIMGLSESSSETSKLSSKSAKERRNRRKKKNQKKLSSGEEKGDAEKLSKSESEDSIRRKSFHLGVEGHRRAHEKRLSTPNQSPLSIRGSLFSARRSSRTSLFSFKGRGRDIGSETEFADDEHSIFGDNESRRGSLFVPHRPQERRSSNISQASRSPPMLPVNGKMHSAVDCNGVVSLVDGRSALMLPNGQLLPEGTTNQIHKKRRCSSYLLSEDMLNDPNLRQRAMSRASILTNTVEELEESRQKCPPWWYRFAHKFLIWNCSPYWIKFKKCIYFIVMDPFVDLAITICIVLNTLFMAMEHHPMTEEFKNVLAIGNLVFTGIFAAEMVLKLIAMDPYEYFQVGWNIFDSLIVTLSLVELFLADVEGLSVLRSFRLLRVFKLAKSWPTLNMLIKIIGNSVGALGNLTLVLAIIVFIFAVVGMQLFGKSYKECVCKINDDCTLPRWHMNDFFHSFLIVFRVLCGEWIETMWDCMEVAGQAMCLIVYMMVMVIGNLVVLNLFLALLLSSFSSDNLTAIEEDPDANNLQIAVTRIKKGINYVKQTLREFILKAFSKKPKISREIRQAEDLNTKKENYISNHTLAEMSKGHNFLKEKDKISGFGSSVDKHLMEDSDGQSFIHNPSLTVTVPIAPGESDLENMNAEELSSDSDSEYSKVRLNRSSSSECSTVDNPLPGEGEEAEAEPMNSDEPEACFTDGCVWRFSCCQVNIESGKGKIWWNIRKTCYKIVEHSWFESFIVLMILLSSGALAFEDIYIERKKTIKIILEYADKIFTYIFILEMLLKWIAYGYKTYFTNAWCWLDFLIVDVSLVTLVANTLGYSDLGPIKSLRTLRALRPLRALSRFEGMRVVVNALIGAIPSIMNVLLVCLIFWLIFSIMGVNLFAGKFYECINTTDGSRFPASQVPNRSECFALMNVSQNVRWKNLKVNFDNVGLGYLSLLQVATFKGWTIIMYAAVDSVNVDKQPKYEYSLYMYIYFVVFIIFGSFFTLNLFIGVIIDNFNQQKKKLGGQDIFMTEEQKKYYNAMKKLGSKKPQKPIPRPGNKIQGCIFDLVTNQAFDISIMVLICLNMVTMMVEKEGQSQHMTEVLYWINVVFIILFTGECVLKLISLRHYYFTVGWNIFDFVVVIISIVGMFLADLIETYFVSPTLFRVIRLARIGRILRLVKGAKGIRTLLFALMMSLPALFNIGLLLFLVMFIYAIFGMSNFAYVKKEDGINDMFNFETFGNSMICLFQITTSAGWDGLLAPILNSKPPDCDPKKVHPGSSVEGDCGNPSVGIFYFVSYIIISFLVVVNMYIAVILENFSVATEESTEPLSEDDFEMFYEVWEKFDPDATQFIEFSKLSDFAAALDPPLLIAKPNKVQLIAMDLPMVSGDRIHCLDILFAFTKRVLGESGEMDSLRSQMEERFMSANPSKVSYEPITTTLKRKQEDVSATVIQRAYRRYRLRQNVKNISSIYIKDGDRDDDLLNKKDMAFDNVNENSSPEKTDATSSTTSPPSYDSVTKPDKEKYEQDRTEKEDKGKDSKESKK
Experiment: Patch voltage clamp electrophysiology (EP), Syncropatch 384PE, Nav1.7 in CHO cells
Format: cell-based
Settings: holding potential −50 mV, inhibition based on 7.5 min compound incubation, read-out: hNaV1.7 EP_SP
Give the value, in units of nM, as a plain number.

Example results:
CC(C)N1CC(OC2CCN(S(=O)(=O)NC(=O)c3cc(Cl)c(OCC4CCCC4)cc3F)CC2)C1 :: 31
CC[C@H](C)S(=O)(=O)NC(=O)c1cc(Cl)c(OCC2CCCC2)cc1F (single isomer, unassigned) :: 14
O=C(NS(=O)(=O)c1ccc(NC2CCCCC2)cc1F)c1cc(Cl)c(OCC2CCCC2)cc1F :: 880
O=C(NS(=O)(=O)c1ccc(OCc2ccc(F)cc2)cc1)c1cc(Cl)c(OCC2CCCC2)cc1F :: 110

[Q] For the compound O=C(NS(=O)(=O)c1ccc(OC(F)(F)F)cc1Cl)c1cc(Cl)c(OCC2CCCC2)cc1F , give its measured IC50 value.
[A] 850

[Q] Complete the entry with IC50 for NCc1cccc(COc2ccc(S(=O)(=O)NC(=O)c3cc(Cl)c(OCC4CCCC4)cc3F)cc2)c1
[A] 3.2

[Q] Specify IC50 for O=C(NS(=O)(=O)c1ccc2c(c1)OCCO2)c1cc(Cl)c(OCC2CCCC2)cc1F and stop.
[A] 320

###

Readings of pIC50 for the listed compounds
Target: hNaV1.7 (Homo sapiens)
Construct: expressed in transfected cells
Assay: Patch voltage clamp electrophysiology (EP), Syncropatch 384PE, Nav1.7 in CHO cells;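 further: Nav1.7 stably expressed from cDNA in CHO cells, holding potential of −50 mV kept for the entire experiment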
Assay type: cell-based
Conditions: holding potential −50 mV, inhibition based on 7.5 min compound incubation, read-out: hNaV1.7 EP_SP
Schema: pIC50 number; meaning minus log10 of the concentration expressed in molar units.

[Q] Please list pIC50 recorded for the compound O=C(NS(=O)(=O)c1ccc(OCc2ccccc2)cc1)c1cc(Cl)c(OCC2CCCC2)cc1F
[A] 6.89

[Q] Dear colleague, please send me the reported pIC50 for C[C@@H]1C[C@H]1S(=O)(=O)NC(=O)c1cc(Cl)c(OCC2CCCC2)cc1F (single isomer, unassigned) when you can.
[A] 7.80

[Q] Let me know recorded pIC50 for COc1cc(COc2ccc(S(=O)(=O)NC(=O)c3cc(Cl)c(OCC4CCCC4)cc3F)cc2)cc(OC)c1 , thanks.
[A] 6.77

[Q] Specify measured pIC50 for C[C@@H]1CCCCN1S(=O)(=O)NC(=O)c1cc(Cl)c(OCC2CCCC2)cc1F (single isomer, unassigned) .
[A] 8.00

Values from patent US20240228463A1
